From: patent US20230158141A1

Molecular target: T1, IL-10R2-Fc/His (UniProt Q08334 20-220, limits assumed)
T1 sequence (looked up): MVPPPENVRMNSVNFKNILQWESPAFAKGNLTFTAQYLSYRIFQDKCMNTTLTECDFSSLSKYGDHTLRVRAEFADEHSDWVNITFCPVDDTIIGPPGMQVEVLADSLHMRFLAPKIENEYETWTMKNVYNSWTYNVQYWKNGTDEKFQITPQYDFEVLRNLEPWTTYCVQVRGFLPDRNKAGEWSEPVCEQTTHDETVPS
Assay: ELISA, IL-10R2-Fc/His coated
Measurement Name: Decreased fold of binding to ligand after Conjugating with S48 (fold)
Provide only the numeric value, understood in fold.

Binder	Unit Descriptor	Reported
IL-10 Asn92Cys-S48 (ligand, human, UniProt P22301 19-178, looked up, S48 on Cys 92, mature) SPGQGTQSENSCTHFPGNLPNMLRDLRDAFSRVKTFFQMKDQLDNLLLKESLLEDFKGYLGCQALSEMIQFYLEEVMPQAENQDPDIKAHVCSLGENLKTLRLRLRRCHRFLPCENKSKAVEQVKNAFNKLQEKGIYKAMSEFDIFINYIEAYMTMKIRN	fold	3

// query Requested read-out: Decreased fold of binding to ligand after Conjugating with S48. Entry: IL-10 Ser31Cys-S48 (ligand, human, UniProt P22301 19-178, looked up, S48 on Cys 31, mature) SPGQGTQSENSCTHFPGNLPNMLRDLRDAFCRVKTFFQMKDQLDNLLLKESLLEDFKGYLGCQALSEMIQFYLEEVMPQAENQDPDIKAHVNSLGENLKTLRLRLRRCHRFLPCENKSKAVEQVKNAFNKLQEKGIYKAMSEFDIFINYIEAYMTMKIRN
// result 7
